Listed below: DC50 values for each entry.
Biological target: HiBit-BRM fusion protein (Homo sapiens, UniProt P51531)
Construct: expressed in transfected cells
Sequence (P51531 whole entry, the tested form may be a part): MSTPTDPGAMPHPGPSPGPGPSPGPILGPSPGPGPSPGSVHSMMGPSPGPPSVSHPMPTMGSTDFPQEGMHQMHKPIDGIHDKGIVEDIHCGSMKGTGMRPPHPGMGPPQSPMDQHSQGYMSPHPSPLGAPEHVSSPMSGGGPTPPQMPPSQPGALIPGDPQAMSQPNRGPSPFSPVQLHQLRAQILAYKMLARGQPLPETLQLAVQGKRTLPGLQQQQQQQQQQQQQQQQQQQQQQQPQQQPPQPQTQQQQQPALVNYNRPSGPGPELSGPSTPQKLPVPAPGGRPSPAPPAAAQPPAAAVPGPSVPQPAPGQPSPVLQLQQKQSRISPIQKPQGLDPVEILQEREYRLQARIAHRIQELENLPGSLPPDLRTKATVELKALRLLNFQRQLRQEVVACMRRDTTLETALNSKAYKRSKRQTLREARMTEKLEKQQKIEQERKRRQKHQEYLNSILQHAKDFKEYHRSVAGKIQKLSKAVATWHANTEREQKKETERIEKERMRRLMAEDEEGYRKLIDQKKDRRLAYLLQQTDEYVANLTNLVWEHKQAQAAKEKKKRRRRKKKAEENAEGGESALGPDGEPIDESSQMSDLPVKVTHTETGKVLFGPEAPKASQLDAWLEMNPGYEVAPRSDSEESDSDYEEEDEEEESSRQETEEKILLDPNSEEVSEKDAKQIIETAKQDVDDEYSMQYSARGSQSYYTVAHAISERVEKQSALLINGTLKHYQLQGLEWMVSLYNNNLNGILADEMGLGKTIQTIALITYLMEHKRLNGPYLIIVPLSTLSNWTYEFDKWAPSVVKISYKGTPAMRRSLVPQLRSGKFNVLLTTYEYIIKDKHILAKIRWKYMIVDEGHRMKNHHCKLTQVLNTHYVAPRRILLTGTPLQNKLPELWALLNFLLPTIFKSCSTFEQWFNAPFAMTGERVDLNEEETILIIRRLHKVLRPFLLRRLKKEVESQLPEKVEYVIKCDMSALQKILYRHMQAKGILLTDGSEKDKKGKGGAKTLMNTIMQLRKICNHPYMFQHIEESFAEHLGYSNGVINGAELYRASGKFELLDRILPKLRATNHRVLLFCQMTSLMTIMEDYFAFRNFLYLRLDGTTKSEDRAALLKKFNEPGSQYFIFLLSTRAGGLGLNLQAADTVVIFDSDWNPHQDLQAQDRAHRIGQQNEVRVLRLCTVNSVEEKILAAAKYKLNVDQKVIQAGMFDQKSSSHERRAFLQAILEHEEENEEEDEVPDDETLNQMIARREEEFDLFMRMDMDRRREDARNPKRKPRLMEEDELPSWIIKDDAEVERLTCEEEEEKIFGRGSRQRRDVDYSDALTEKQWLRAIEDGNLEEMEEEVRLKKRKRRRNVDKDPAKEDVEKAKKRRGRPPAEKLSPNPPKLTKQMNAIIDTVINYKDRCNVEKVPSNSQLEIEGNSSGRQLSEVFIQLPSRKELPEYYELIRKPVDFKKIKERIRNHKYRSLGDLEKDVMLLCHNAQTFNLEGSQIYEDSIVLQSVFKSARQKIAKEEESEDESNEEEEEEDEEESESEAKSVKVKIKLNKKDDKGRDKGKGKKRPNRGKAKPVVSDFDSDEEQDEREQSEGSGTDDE
Experiment: HiBiT-BRM cell-based degradation assay (Nano-Glo HiBiT Lytic Detection, 24 h)
Settings: HeLa cell line expressing HiBiT-BRM, read-out: BRM HiBit Degradation IC50
Procedure: Procedure: A stable HeLa cell line expressing HiBiT-BRM was generated. On day 0, 5000 cells were seeded in 40 μL of media into each well of 384-well cell culture plates. […] The plates were shaken for 10 minutes at room temperature and the bioluminescence read using an EnVision plate reader (PerkinElmer). The degradation % was calculated using the following formula: % degradation=100%−100%×(LumSample−LumLC)/(LumHC−LumLC). […]

These solved cases illustrate the format of a correct answer.
| COMPOUND | MEASUREMENT NAME | MEASURED |
| --- | --- | --- |
| Cc1ncsc1-c1ccc(CNC(=O)[C@@H]2C[C@@H](O)CN2C(=O)[C@@H](c2cc(OCCN3CC(c4cc5cc(-c6ccccc6O)nnc5[nH]4)C3)no2)C(C)C)cc1 (single isomer, unassigned) | DC50 | > 10 nM |
| Cc1ncsc1-c1ccc([C@H](C)NC(=O)[C@@H]2C[C@@H](O)CN2C(=O)[C@@H](c2cc(OCCNC34CC(c5[nH]c6nnc(-c7ccccc7O)cc6c5C)(C3)C4)no2)C(C)C)cc1 (racemic) | DC50 | < 10 nM |
| Cc1ncsc1-c1ccc([C@H](C)NC(=O)[C@@H]2C[C@@H](O)CN2C(=O)[C@@H](c2cc(N3CCN(C(=O)c4cc5cc(-c6ccccc6O)nnc5[nH]4)CC3)no2)C(C)C)cc1 (racemic) | DC50 | > 100 nM |

Need DC50 of Cc1ncsc1-c1ccc([C@H](C)NC(=O)[C@@H]2C[C@@H](O)CN2C(=O)[C@@H](c2cc(OCCN3C[C@@H]4[C@H](C3)[C@H]4c3cc4cc(-c5cccc(F)c5O)nnc4[nH]3)no2)C(C)C)cc1 (racemic) , thanks. > 10 nM

Value source: patent US20240024488A1
